# ASSAY_SYSTEM: glutathione S-transferase (GST)-fusion human ERK2 protein (Homo sapiens, UniProt P28482)
# Construct: purchased Carna Biosciences, Inc; host or cells: E. coli expression system
# Sequence (P28482 whole entry, the tested form may be a part): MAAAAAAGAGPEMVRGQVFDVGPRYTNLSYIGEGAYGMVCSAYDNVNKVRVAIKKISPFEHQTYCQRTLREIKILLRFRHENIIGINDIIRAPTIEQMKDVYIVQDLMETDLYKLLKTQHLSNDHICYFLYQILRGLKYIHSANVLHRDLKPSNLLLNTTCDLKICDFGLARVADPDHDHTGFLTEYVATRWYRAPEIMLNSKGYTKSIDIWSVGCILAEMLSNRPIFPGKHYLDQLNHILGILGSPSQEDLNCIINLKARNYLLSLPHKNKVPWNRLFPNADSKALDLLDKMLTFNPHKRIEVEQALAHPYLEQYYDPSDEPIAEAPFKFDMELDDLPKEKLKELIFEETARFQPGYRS
# ASSAY: ERK2 enzyme assay (LabChip mobility shift)
# Assay type: biochemical
# CONDITION_SUMMARY: IC50 class; 2 nM ERK2, 4.25 μM FL-Peptide 8, 43 μM ATP; read-out: ERK2 Inhibitory Activity
ATTRIBUTE_MEASURED: IC50

What IC50 value was documented for this compound, O=C(Nc1ccc2ncc(-c3cnn(CCCN4CCOCC4)c3)cc2n1)NC1CCCC1 [Compound 0044] ?
< 0.1 µM

Further, for CC1(NC(=O)Nc2ccc3ncc(-c4cnn(CCCN5CCNCC5)c4)cc3n2)CCCC1 [Compound 0256] ?
0.1 to 1 µM

Further, for O=C(NCC1C[C@@H]2CC[C@H]1C2)Nc1ccc2ncc(-c3cnn(CCN4CCNCC4)c3)cc2n1 (some centres unmarked) [Compound 0252] ?
0.1 to 1 µM

New cases:
What IC50 value was documented for this compound, CCOC(=O)CNC(=O)Nc1ccc2ncc(-c3cn[nH]c3)cc2n1 [Compound 0062] ?
0.1 to 1 µM

Further, for CO[C@H]1CCC[C@@H]1NC(=O)Nc1ccc2ncc(-c3cn[nH]c3)cc2n1 [Compound 0194] ?
< 0.1 µM

Further, for CCN1CCC(n2cc(-c3cnc4ccc(NC(=O)NC5CCCC5)nc4c3)cn2)CC1 [Compound 0230] ?
0.1 to 1 µM

Further, for O=C(Nc1ccc2ncc(N3CCNCC3)cc2n1)NC1CCCC1 [Compound 0013] ?
0.1 to 1 µM

Further, for CC(C)CC(C)NC(=O)Nc1ccc2ncc(-c3cn[nH]c3)cc2n1 (centres unmarked) [Compound 0087] ?
< 0.1 µM

Further, for COCCCNC(=O)Nc1ccc2ncc(-c3cn[nH]c3)cc2n1 [Compound 0100] ?
< 0.1 µM

###

# ASSAY_SYSTEM: glutathione S-transferase (GST)-fusion human ERK2 protein (Homo sapiens, UniProt P28482)
# Construct: purchased Carna Biosciences, Inc; host or cells: E. coli expression system
# ASSAY: ERK2 enzyme assay (LabChip mobility shift)
# Assay type: biochemical
# CONDITION_SUMMARY: IC50 class; 2 nM ERK2, 4.25 μM FL-Peptide 8, 43 μM ATP; read-out: ERK2 Inhibitory Activity
Recorded IC50, one value per entry.

See these solved cases before continuing.
What IC50 value was documented for this compound, CN1CCC(NC(=O)Nc2ccc3ncc(-c4cn[nH]c4)cc3n2)CC1 ?
100 to 1000 nM

Further, for O=C(Nc1ccc2ncc(-c3ccc(O)cc3)cc2n1)NC1CCCC1 ?
< 100 nM

Further, for O=C(Nc1ccc2ncc(-c3cnn(CCN4CCOCC4)c3)cc2n1)NC1C[C@H]2CC[C@@H]1C2 (some centres unmarked) ?
< 100 nM

Further, for O=C(NCCCOc1ccccc1)Nc1ccc2ncc(-c3cn[nH]c3)cc2n1 ?
< 100 nM

// next item, IC50 requested
What IC50 value was documented for this compound, O=C(Nc1ccc2ncc(-c3cccnc3)cc2n1)NC1CCCC1 ?
100 to 1000 nM

###

# ASSAY_SYSTEM: glutathione S-transferase (GST)-fusion human ERK2 protein (Homo sapiens, UniProt P28482)
# Construct: purchased Carna Biosciences, Inc; host or cells: E. coli expression system
# ASSAY: ERK2 enzyme assay (LabChip mobility shift)
# Type: biochemical
# CONDITION_SUMMARY: IC50 class; 2 nM ERK2, 4.25 μM FL-Peptide 8, 43 μM ATP; read-out: ERK2 Inhibitory Activity
# Procedure: Evaluation of the ERK2 inhibitory activity of the compound of the present invention was carried out according to the method as described below. For the ERK2 enzyme assay, a glutathione S-transferase (GST)-fusion human ERK2 protein (Carna Biosciences, Inc.) produced using an E. coli expression system was used. […] The inhibitory activity of the compounds was evaluated using an IC50 (50% inhibitory concentration). The IC50 was calculated using XLfit (IDBS).
pIC50: −log10 of the molar value.
Recorded pIC50, one value per entry.

See these solved cases before continuing.
What pIC50 value was documented for this molecule, S=C(Nc1ccc2ncc(-c3cnn(CCCN4CCNCC4)c3)cc2n1)NC1CCCC1 [Compound 0220] ?
> 7.00

Further, for O=C(NCCCN1CCOCC1)Nc1ccc2ncc(-c3cn[nH]c3)cc2n1 [Compound 0201] ?
6.00 to 7.00

New cases:
What pIC50 value was documented for this molecule, Cn1cc(-c2cnc3ccc(NC(=O)NC4CCCC4)nc3c2Cl)cn1 [Compound 0226] ?
> 7.00

Further, for O=C(Nc1ccc2ncc(-c3ccccc3)cc2n1)NC1CCCC1 [Compound 0006] ?
6.00 to 7.00

###

# ASSAY_SYSTEM: glutathione S-transferase (GST)-fusion human ERK2 protein (Homo sapiens, UniProt P28482)
# Construct: purchased Carna Biosciences, Inc; host or cells: E. coli expression system
# ASSAY: ERK2 enzyme assay (LabChip mobility shift)
# Format: biochemical
# CONDITION_SUMMARY: IC50 class; 2 nM ERK2, 4.25 μM FL-Peptide 8, 43 μM ATP; read-out: ERK2 Inhibitory Activity
pIC50: −log10 of the molar value.
Recorded pIC50, one value per entry.

See these solved cases before continuing.
What pIC50 value was documented for this molecule, CS(=O)(=O)C1CCN(CCn2cc(-c3cnc4ccc(NC(=O)NC5CCCC5)nc4c3)cn2)CC1 [Compound 0218] ?
> 7.00

Further, for O=C(Nc1ccc2ncc(-c3cnn(CCN4CC5(COC5)C4)c3)cc2n1)NC1CCCC1 [Compound 0117] ?
6.00 to 7.00

Further, for O=C(NCCCCN1CCCC1)Nc1ccc2ncc(-c3cn[nH]c3)cc2n1 [Compound 0177] ?
6.00 to 7.00

New cases:
What pIC50 value was documented for this molecule, O=C(Nc1ccc2ncc(-c3cccc(O)c3)cc2n1)NC1CCCC1 [Compound 0033] ?
> 7.00

Further, for COc1ccc(C(=O)Nc2cnc3ccc(NC(=O)NC4CCCC4)nc3c2)cc1 [Compound 0135] ?
< 5.00

Further, for O=C(NCCCCc1ccc(F)cc1)Nc1ccc2ncc(-c3cn[nH]c3)cc2n1 [Compound 0172] ?
> 7.00

Further, for O=C(Nc1ccc2ncccc2n1)NC1CCCC1 [Compound 0116] ?
5.00 to 6.00

Further, for O=C(Nc1ccc2ncc(-c3ccc(CO)cc3)cc2n1)NC1CCCC1 [Compound 0042] ?
> 7.00

###

Recorded pIC50, one value per entry.
# ASSAY_SYSTEM: human PI3Kα protein (Homo sapiens)
# Construct: purchased Carna Biosciences, Inc; host or cells: Baculovirus expression system
# Sequence (P42336 whole entry): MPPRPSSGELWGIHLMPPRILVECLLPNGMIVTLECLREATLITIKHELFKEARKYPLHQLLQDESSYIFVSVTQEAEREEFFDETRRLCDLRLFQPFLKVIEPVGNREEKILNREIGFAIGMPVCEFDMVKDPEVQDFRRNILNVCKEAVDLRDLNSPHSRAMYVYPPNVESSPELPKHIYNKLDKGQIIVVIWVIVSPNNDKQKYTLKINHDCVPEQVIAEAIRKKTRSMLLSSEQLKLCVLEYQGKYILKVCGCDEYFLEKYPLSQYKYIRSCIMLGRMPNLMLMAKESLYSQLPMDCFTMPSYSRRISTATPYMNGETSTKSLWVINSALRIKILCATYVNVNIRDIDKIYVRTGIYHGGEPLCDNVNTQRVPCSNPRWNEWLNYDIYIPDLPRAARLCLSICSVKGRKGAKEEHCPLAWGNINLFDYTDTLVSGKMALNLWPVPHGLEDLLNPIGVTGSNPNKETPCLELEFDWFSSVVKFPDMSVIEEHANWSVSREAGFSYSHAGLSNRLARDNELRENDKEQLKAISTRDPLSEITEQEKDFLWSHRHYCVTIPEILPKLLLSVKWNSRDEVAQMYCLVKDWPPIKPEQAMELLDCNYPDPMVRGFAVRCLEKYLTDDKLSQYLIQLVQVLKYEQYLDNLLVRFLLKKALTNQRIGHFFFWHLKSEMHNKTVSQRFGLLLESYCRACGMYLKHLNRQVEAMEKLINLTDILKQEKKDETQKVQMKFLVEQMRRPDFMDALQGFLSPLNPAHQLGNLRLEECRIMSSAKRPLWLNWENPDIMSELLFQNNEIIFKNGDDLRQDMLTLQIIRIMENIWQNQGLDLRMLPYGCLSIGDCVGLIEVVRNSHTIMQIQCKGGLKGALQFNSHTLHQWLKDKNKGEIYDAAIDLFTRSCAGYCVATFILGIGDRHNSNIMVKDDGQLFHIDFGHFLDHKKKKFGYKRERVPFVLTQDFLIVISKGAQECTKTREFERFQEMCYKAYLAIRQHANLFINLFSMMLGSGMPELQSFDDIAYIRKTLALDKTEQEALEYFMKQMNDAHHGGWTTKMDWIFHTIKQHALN
# Sequence (P27986 whole entry partner): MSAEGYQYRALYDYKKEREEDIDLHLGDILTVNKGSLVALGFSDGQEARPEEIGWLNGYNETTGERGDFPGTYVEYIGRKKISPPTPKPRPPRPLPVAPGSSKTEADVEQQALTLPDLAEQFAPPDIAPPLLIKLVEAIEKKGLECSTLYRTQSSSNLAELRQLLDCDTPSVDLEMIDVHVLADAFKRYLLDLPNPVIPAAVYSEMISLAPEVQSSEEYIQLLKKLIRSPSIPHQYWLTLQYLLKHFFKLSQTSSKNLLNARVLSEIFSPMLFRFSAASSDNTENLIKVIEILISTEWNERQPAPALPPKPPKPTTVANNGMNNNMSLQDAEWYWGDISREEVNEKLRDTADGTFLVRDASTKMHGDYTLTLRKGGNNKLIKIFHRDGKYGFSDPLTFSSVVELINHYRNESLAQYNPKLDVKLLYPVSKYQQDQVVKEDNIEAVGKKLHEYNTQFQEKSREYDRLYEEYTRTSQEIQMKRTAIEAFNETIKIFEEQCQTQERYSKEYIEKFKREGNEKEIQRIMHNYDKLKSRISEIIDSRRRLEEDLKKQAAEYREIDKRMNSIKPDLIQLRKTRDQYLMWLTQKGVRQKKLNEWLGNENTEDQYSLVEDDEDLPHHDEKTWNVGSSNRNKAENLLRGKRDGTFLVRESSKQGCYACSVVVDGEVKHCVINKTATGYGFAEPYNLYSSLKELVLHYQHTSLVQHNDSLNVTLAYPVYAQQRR
# ASSAY: PI3Kα enzyme assay (ADP-Glo kinase assay)
# Assay type: biochemical
# CONDITION_SUMMARY: 3 nM PI3Kα, 50 μM PIP2, 100 μM ATP; read-out: PI3Kα, IC50
Reminder that pIC50 means the negative base-10 logarithm of the concentration expressed in mol/L.

See these solved cases before continuing.
What pIC50 value was documented for this compound, Cc1n[nH]cc1-c1cnc2ccc(NC(=O)NC3CCCC3)nc2c1 [Compound 0043] ?
7.96

Further, for O=C(Nc1ccc2ncc(-c3cnn(CCN4CCNCC4)c3)cc2n1)NC1CCCC1 [Compound 0051] ?
8.22

Further, for COc1ccc(-c2cnc3ccc(NC(=O)NC4CCCC4)nc3c2)cc1OC [Compound 0002] ?
7.08

Further, for O=C(Nc1ccc2ncc(-c3cn[nH]c3)cc2n1)NC1CCN(Cc2ccccc2)C1 (centres unmarked) [Compound 0069] ?
6.88

New cases:
What pIC50 value was documented for this compound, C[C@@H](NC(=O)Nc1ccc2ncc(-c3cn[nH]c3)cc2n1)C1CCCCC1 [Compound 0080] ?
7.22

Further, for O=C(NCCCCc1ccccc1)Nc1ccc2ncc(-c3cn[nH]c3)cc2n1 [Compound 0064] ?
7.30

###

# ASSAY_SYSTEM: glutathione S-transferase (GST)-fusion human ERK2 protein (Homo sapiens, UniProt P28482)
# Construct: purchased Carna Biosciences, Inc; host or cells: E. coli expression system
# ASSAY: ERK2 enzyme assay (LabChip mobility shift)
# Type: biochemical
# CONDITION_SUMMARY: 2 nM ERK2, 4.25 μM FL-Peptide 8, 43 μM ATP; read-out: ERK2, IC50
# Method: Evaluation of the ERK2 inhibitory activity of the compound of the present invention was carried out according to the method as described below. For the ERK2 enzyme assay, a glutathione S-transferase (GST)-fusion human ERK2 protein (Carna Biosciences, Inc.) produced using an E. coli expression system was used. […] The inhibitory activity of the compounds was evaluated using an IC50 (50% inhibitory concentration). The IC50 was calculated using XLfit (IDBS).
ATTRIBUTE_MEASURED: pIC50
Reminder that pIC50 means the negative base-10 logarithm of the concentration expressed in mol/L.

See these solved cases before continuing.
What pIC50 value was documented for this molecule, O=C(Nc1ccc2ncc(-c3cnn(CCN4CCNCC4)c3)cc2n1)NC1CCCC1 [Compound 0051] ?
7.46

Further, for O=C(Nc1ccc2ncc(-c3cnn(CCCN4CCOCC4)c3)cc2n1)NC1CCCC1 [Compound 0044] ?
7.31

Further, for O=C(Nc1ccc2ncc(-c3cn[nH]c3)cc2n1)NC1CCCC1 [Compound 0137] ?
8.15

Further, for COc1ccc(-c2cnc3ccc(NC(=O)NC4CCCC4)nc3c2)cc1OC [Compound 0002] ?
7.38

Further, for O=C(Nc1ccc2ncc(Nc3cn[nH]c3)cc2n1)NC1CCCC1 [Compound 0125] ?
6.49

// next item, pIC50 requested
What pIC50 value was documented for this molecule, O=C(Nc1ccc2ncc(-c3cn[nH]c3)cc2n1)NC1C[C@H]2CC[C@@H]1C2 (some centres unmarked) [Compound 0068] ?
8.40

src = patent US8841456B2
